Would you mind telling me the reported IC50 of each entry?
target: Hsp90 (Homo sapiens); construct: purchased Stressgen SPP-776; experiment: Fluorescence Polarization (FP) binding, GM-BODIPY displacement from Hsp90; conditions: GM-BODIPY tracer, 4° C. for 4 hours

As a guide, the following entries are already answered.
CC(C)c1cc(-n2nnc(C(=O)NC3CCCCC3)c2-c2ccc(CN3CCOCC3)cc2)c(O)cc1O: 50 to 100 nM
CC(C)c1cc(-n2nnc(C(=O)N3CCOCC3)c2-c2ccc(CN3CCOCC3)cc2)c(O)cc1O: 100 to 500 nM
CCNC(=O)c1nnn(-c2cc(C(C)C)c(O)cc2O)c1-c1ccc(CN2CCCCC2CCO)cc1 (stereo not drawn): < 50 nM
CC(C)c1cc(-n2nncc2Nc2ccc(N3CCOCC3)cc2)c(O)cc1O: 50 to 100 nM
CC(C)c1cc(-n2nncc2-c2ccc(CN3CCCC(O)C3)cc2)c(O)cc1O (stereo not drawn): < 50 nM

Now look at this entry.
What IC50 value was documented for this compound, CCNC(=O)c1nnn(-c2cc(C(C)C)c(O)cc2O)c1-c1ccc(CN2CC[C@H](N(C)C)C2)cc1 ?
< 50 nM
